target or system: Catechol O-methyltransferase (Homo sapiens) (UniProt P21964)
Sequence (P21964 whole entry, looked up): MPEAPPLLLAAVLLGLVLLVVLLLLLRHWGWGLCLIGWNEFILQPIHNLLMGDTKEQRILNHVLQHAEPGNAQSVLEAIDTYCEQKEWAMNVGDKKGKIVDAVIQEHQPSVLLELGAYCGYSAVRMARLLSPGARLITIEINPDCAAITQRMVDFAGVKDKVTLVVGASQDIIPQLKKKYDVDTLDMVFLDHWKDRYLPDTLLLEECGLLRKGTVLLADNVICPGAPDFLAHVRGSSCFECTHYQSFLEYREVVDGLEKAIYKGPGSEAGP
experimental details: Primary Screen for Target Class Profiling of Small Molecule Inhibitors of Methyltransferases; further: on the % scale 0 is the no-effect control and ±100 the full control effect
condition parameters: purified enzyme, MTase-Glo SAH luminescence; at 40 µM, stronger effect = lower value
Among all 25,000 compounds or so, about 970 (3.9%) were called active. Not shown: some 8% with an inconclusive outcome. The entries come from a sample that favours actives as a whole.
observed property: activity change, negative = inhibition (%)
Provide only the numeric value, understood in %.

Solved cases (8 shown):
CCCN1C(=O)c2c(C(=O)NCCc3ccco3)ncn2CC1(C)C(=O)NCc1ccc(C)cc1 (centres undefined) :: 7.22
CC(=O)c1cnc2ccc(-c3cc(Cl)c(O)c(Cl)c3)nc2c1NC1CCC(CN(C)C)CC1 (centres undefined) :: 2.27
Oc1cc2c(cc1O)CN(C(=S)NCCc1ccc(Cl)cc1)CCC2 :: 143
COc1c2c(c(C)c3c1C(=O)OC3)OC1(C)CC(O)C34OC(O)(CCC3(C)C1C2)OC4(C)C (centres undefined) :: -2.85
C=C1C(=O)O[C@@H]2[C@H]1CC[C@H](C)[C@]1(CCC(=O)O1)C2(C)O (some centres undefined) :: -16.8
COCCOc1cc(=O)n2c(c1C(=O)NCc1ccccc1)CCOCC2 :: -1.21
CCCn1c(=O)c2ccc(C(=O)NC(C)C)cc2n2c(=O)n(CC(=O)NCc3ccccc3Cl)nc12 :: 4.33
CCCN1C(=O)c2cc(C(=O)N3CCC(C)CC3)nn2CC1(C)C(=O)NC1CCCC1 (centres undefined) :: -0.787

Moving on to the next compound.
activity change, negative = inhibition reported for this compound CCOc1ccc(CN2C(=O)c3cc(C(C)(C)C)nn3CC2(C)C(=O)NC2CCCCCC2)cc1 (centres undefined) : -0.389

====

target or system: Nicotinamide N-methyltransferase (Homo sapiens) (UniProt P40261)
Sequence (P40261 whole entry, looked up): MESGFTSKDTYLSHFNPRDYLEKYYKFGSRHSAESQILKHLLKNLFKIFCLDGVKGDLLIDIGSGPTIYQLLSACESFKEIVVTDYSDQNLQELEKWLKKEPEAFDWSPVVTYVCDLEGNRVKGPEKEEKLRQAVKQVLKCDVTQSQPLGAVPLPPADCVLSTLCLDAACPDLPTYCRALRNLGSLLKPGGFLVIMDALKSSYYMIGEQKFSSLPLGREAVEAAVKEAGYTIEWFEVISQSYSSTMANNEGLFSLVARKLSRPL
experimental details: Primary Screen for Target Class Profiling of Small Molecule Inhibitors of Methyltransferases; further: on the % scale 0 is the no-effect control and ±100 the full control effect
condition parameters: purified enzyme, MTase-Glo SAH luminescence; measured here: NNMT inhibition; at 40 µM; stronger effect = lower value
Out of some 25,000 compounds screened, about 970 (3.9%) were called active. About 8% were inconclusive and are not listed. For the sample, actives were picked, then their nearest neighbours and some compounds at random.
Measured activity change, negative = inhibition, listed per entry.
Provide only the numeric value, understood in %.

Solved cases (10 shown):
O=C(CCc1nnc2n(Cc3ccc(Cl)cc3)c(=O)c3ccccc3n12)N1CCN(Cc2ccccc2)CC1 :: -18.2
Cc1nc2c(c(-c3ccc(O)cc3)n1)CN(C(=O)c1ccccc1C)CCC2 :: -11.6
O=C(CCc1nnc2ccc(NCCCN3CCCC3=O)nn12)NCc1ccccc1Cl :: 1.3
CCOc1ccccc1CN1C(=O)c2ccc(-c3ccco3)n2CC1(C)C(=O)NC1CCCCC1 (stereo unspecified) :: 3.87
CC1(C)[C@H](Cc2cc(-c3ccccc3)on2)C[C@@H]1NCC1CC1 :: -19.5
CN1CCCN(S(=O)(=O)c2cccs2)c2ccccc21 :: -12.8
CCC(=O)N1Cc2ccccc2OC2(CCN(C(C)C)CC2)C1 :: -3.98
Cc1cccc(NC(=O)CSc2nnc3n(CC(C)C)c(=O)c4ccc(C(=O)NC(C)C)cc4n23)c1 :: -3.04
O=C1NC(=NC2CCCC2)C2(CCCN([S+](=O)([O-])c3ccccc3)C2)N1c1cccnc1 (stereo unspecified) :: -11
O=C(CCc1nnc2n(Cc3ccc(Cl)cc3)c(=O)c3ccccc3n12)N1CCN(c2ccccc2F)CC1 :: -3.97

activity change, negative = inhibition reported for this compound `CCn1c(=O)n(CC)c2cc(S(=O)(=O)Nc3ccc(Br)c(C)c3)c(Cl)cc21` : -1.18

activity change, negative = inhibition reported for this compound Cc1cc(Cl)ccc1OCC(=O)N1CC(CO)C2(CCNCC2)C1 (stereo unspecified) : 1.44

activity change, negative = inhibition reported for this compound `COCCOc1cc(=O)n2c(c1C(=O)NCc1ccccc1)CCOCC2` : -1.22
